// provenance: PubChem BioAssay (NCI)

test: NCI Yeast Anticancer Drug Screen. Data for the mlh1 rad18 strain (AID 175); settings: S. cerevisiae mlh1 rad18 strain growth inhibition; at 50.0 µM (retest, dose inferred, filed as 5.0); stronger effect = higher value
About 79,000 compounds went through this panel and 15% of them were active in at least one assay; those are over-represented in the sample as a whole.
// reported growth inhibition for each item listed

Molecule | Units label | growth inhibition
CC(C)CC(C(=O)SCC(C)N1CCCC1)c1ccccc1 (configuration not stated) | % | 37
O=[N+]([O-])c1ccc(Sc2c3ccccc3nc3ccccc23)nc1 | % | 99
O=C1c2ccccc2C(=O)c2sc(Nc3ccc(Cl)c(Cl)c3)nc21 | % | 97
Cn1sc2ccccc2c1=S | % | 98
Cc1ccc(C(=O)OCC(C)C)cc1N=NN(C)C | % | 38
O=C(c1ccccc1)c1cccc2ccccc12 | % | 14
Cc1ccccc1NC(=O)CSC(N)=O | % | 29
CSC(C=P(c1ccccc1)(c1ccccc1)c1ccccc1)=Nc1ccccc1 | % | 97
O=c1cc(Cl)c(Cl)nn1-c1ccccc1 | % | 86
Cc1cc(NS(=O)(=O)c2ccc(NCc3c4ccccc4nc4cc(Cl)ccc34)cc2)no1 | % | 97
CCCCOC(=O)C(C)OC(=O)NNc1ccccc1 (configuration not stated) | % | 87
c1ccc2c(c1)N=c1ccccc1=P21c2ccccc2Nc2ccccc21 | % | 99

* * *

assay: NCI Yeast Anticancer Drug Screen. Data for the bub3 strain (AID 167); conditions: S. cerevisiae bub3 mutant strain, at 50.0 µM, stronger effect = higher value
The panel holds about 79,000 compounds, 15% with a hit somewhere; the sample as a whole holds those more often.
Class definitions on growth inhibition: low-valued: < 50%; mid-valued: ≥ 50% and < 90%; high-valued: ≥ 90%

Molecule | Label value
O=C(CBr)c1cccc(OC(=O)c2ccccc2)c1 | mid-valued
Clc1ccc2ccc3cccnc3c2n1 | low-valued
O=C(Nc1ccc(NC(=O)Nc2cc(C(=O)Nc3ccc(C4=NCCN4)cc3)ccc2C(=O)Nc2ccc(C3=NCCN3)cc2)cc1)Nc1cc(C(=O)Nc2ccc(C3=NCCN3)cc2)ccc1C(=O)Nc1ccc(C2=NCCN2)cc1 | high-valued
O=C1/C(=C/c2cccc(O)c2)SC(=S)N1/C=C\c1nc2ccccc2[nH]c1=O | low-valued
Cc1ccc(/C=N/Nc2ccc([N+](=O)[O-])cc2[N+](=O)[O-])cc1 | low-valued
COc1ccccc1NC(=O)CC(=O)N1N=C(C)C(N=Nc2ccc(I)cc2)C1=O (stereo unspecified) | low-valued
CCCCCCCCN(CCCCCCCC)CC(O)c1cc(-c2ccc(OC)cc2)nc2cc(Cl)ccc12 (stereo unspecified) | mid-valued
CN(CCCN(CCO)CCO)C1CC(C)(C)N(O)C(C)(C)C1 | low-valued
Nc1c(C(=O)Nc2ccccc2)[n+]([O-])c2ccccc2[n+]1[O-] | high-valued
CN(C)CC(O)c1cc(-c2ccc(Cl)cc2)nc2c(Cl)cc(Cl)cc12 (stereo unspecified) | high-valued
Cc1ccc(S(=O)(=O)NC(CCC(=O)Nc2ccccc2)C(=O)O)cc1 (stereo unspecified) | high-valued
CCCCCCCC/C=C\CCCCCCCC(=O)NCCN(C)C | high-valued
COc1cccc2c1OC(c1cccc3ccccc13)C([N+](=O)[O-])=C2 (stereo unspecified) | mid-valued
CCCCCNC(=O)c1ccc(Cl)c(Cl)c1 | mid-valued
CC1(C)CCC(C)(C)c2cc(C(=O)Nc3ccc(C(=O)O)cc3)ccc21 | low-valued
COc1ccc2ccccc2c1/C=C/C(=O)c1ccccc1 | low-valued
O=[N+]([O-])/C(=C\c1cccs1)c1ccccc1 | high-valued
CCC1(CC(=O)O)OCCc2c1[nH]c1c(C)c(Cl)ccc21 (stereo unspecified) | high-valued
Cc1c(N=Nc2c(S(=O)(=O)O)cc3cc(S(=O)(=O)O)c(N=Nc4c(C)n(C)n(-c5ccccc5)c4=O)c(O)c3c2O)c(=O)n(-c2ccccc2)n1C | low-valued
OCc1c2c(cc3c1CC1(C3)Cc3cc4c(c(CO)c3C1)CCC4)CCC2 | mid-valued
O=C(Nc1ccccc1C(=O)NC(=O)c1ccccc1NC(=O)c1ccccc1)c1ccccc1 | low-valued
CC(c1ccc2ccccc2c1)c1c(F)cccc1C(=O)O (stereo unspecified) | high-valued
CO/N=C/c1ccc([N+](=O)[O-])s1 | low-valued
CCN=C(N)Nc1nc(-c2ccc(Cl)cc2)cs1 | high-valued
C=CCNC(=S)N/N=C/c1nccc(-c2ccccc2)c1C | mid-valued
N/C(CC(=O)NOC(=O)c1ccccc1)=N/OC(=O)c1ccccc1 | high-valued
Oc1c(Cl)cc(C(c2cc(Cl)c(O)c(Cl)c2)C(c2cc(Cl)c(O)c(Cl)c2)c2cc(Cl)c(O)c(Cl)c2)cc1Cl | high-valued
O=[N+]([O-])c1ccc(Sc2ccc([N+](=O)[O-])o2)cc1 | mid-valued
Fc1ccc(CSC(=S)Nc2ccc(Br)cc2)cc1 | mid-valued
Cc1ccccc1-n1c(N)c(-c2nc3ccccc3[nH]2)sc1=S | mid-valued
COc1ccc2ccccc2c1Cc1c(OC)ccc2ccccc12 | low-valued
COc1ccc(CSC(=S)Nc2ccccc2C(F)(F)F)cc1 | high-valued
CCN(CC)CCOc1ccc(C=C2c3ccccc3-c3ccccc32)cc1 | high-valued
[O-][n+]1c2ccccc2cc2c1c1ccccc1n2O | low-valued
